Tgt: JAK3 (Homo sapiens)
Construct: purchased Carna Biosciences, Inc
Sequence (P52333 whole entry): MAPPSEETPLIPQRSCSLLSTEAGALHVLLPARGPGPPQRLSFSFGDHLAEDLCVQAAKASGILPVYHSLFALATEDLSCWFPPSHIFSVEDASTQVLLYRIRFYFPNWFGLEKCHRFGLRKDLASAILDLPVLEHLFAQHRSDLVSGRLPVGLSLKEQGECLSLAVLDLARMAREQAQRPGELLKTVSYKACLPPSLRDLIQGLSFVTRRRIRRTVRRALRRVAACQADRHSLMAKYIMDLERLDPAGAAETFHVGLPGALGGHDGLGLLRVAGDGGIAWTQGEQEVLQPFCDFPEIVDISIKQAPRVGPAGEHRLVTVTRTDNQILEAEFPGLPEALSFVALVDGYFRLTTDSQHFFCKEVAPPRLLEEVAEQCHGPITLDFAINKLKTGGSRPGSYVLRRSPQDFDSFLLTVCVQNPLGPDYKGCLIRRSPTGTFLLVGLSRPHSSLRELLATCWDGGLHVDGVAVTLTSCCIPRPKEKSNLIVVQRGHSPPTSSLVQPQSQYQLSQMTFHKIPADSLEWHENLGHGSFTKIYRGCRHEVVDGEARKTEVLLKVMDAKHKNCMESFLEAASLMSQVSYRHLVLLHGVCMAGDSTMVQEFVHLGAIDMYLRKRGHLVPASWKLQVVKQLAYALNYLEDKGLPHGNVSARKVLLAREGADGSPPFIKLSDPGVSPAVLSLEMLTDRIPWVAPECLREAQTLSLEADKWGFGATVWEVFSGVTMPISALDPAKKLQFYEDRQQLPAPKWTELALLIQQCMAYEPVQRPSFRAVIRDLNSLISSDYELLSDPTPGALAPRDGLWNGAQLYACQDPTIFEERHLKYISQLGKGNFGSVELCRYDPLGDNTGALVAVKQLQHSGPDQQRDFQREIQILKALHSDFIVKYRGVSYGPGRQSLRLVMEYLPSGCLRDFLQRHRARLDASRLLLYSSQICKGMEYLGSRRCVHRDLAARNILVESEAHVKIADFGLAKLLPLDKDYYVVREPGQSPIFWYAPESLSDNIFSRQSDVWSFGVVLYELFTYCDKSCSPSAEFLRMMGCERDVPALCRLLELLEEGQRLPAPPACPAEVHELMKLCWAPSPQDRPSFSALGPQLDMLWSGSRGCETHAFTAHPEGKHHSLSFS
Assay method text: JAK tyrosine kinase inhibitory activity in the presence of 1 mM ATP (ELISA), JAK3
Assay type: biochemical
Attribute measured: IC50 (nM)

Please review the following examples before continuing.
[in] Which IC50 is reported with JAK3 (Homo sapiens) for this entry: O=C(NC1CCN(C(=O)c2cc(NC3CC4CCC3C4)nc(-c3cnn4ccsc34)n2)CC1)C1CC1 (stereo not drawn) [Example 176] ?
[out] 4600

[in] So what IC50 did Cc1c(N[C@@H](C)C2CC2)nc(-c2cnn3ccsc23)nc1C(=O)N1CCC(NC(=O)C2CC2)CC1 [Example 12] get with JAK3 (Homo sapiens)?
[out] 1800

[in] Record C[C@H](Nc1cc(C(=O)N2CCC(O)CC2)nc(-c2cnn3ccsc23)n1)C(C)(C)C [Example 23] : what is its IC50 with JAK3 (Homo sapiens)?
[out] 3300

[in] Short answer please: IC50, JAK3 (Homo sapiens), entry CCCCCCC(=O)NC1CCN(C(=O)c2cc(N[C@H](C)C(C)(C)C)nc(-c3cnn4ccsc34)n2)CC1 [Example 195]
[out] 4900

[in] Query the reported IC50 for JAK3 (Homo sapiens); item: CC(=O)NC1CCN(C(=O)c2nc(-c3cnn4ccsc34)nc(N[C@@H](C)C(C)(C)C)c2C)CC1 [Example 6]
[out] 2800

[in] Value wanted: IC50 (JAK3 (Homo sapiens)) of entry CN(c1cc(C(=O)N2CCC(NC(=O)C3CC3)CC2)nc(-c2cnn3ccsc23)n1)[C@H]1CCC[C@@H]1OC(F)F [Example 5]
[out] 1400

a = COC(=O)NC1CCN(C(=O)c2cc(NCCC3CC3)nc(-c3cnn4ccsc34)n2)CC1 [Example 163]
b = C[C@H](Nc1cc(C(=O)N2CCC(NS(C)(=O)=O)CC2)nc(-c2cnn3ccsc23)n1)C1CC1 [Example 66]
c = CC[C@H](C)Nc1nc(-c2cnn3ccsc23)nc(C(=O)N2CCC(NC(=O)OC)CC2)c1OC [Example 153]
[in] Please order the records by their reported IC50, lowest number first. Answer format: list of labels, ordered as asked.
[out] b, a, c
(b: 2400 nM, a: 5600 nM, c: 9000 nM)

a = CCCOC(=O)NC1CCN(C(=O)c2cc(N[C@H](C)C(C)(C)C)nc(-c3cnn4ccsc34)n2)CC1 [Example 85]
b = C[C@@H](Nc1cc(C(=O)N2CCC(NC(=O)C3CC3)CC2)nc(-c2cnn3ccsc23)n1)C1CC1 [Example 46]
[in] Kindly compare a with b and tell me which has the lower IC50 figure. Please identify the chosen entry by its label.
[out] a
(a: 2300 nM, b: 7200 nM)

P = CC(C)(C)Nc1cc(C(=O)N2CCC(Nc3nccs3)CC2)nc(-c2cnn3ccsc23)n1 [Example 75]
Q = COCCOC(=O)NC1CCN(C(=O)c2cc(N[C@H](C)C(C)(C)C)nc(-c3cnn4ccsc34)n2)CC1 [Example 90]
R = C[C@H](Nc1cc(C(=O)N2CCC(NC(=O)NC3CC3)CC2)nc(-c2cnn3ccsc23)n1)C1CC1 [Example 34]
S = CC(C)(C)CNc1cc(C(=O)N2CCC(NC(=O)C3CC3)CC2)nc(-c2cnn3ccsc23)n1 [Example 15]
T = COC(=O)NC1CCN(C(=O)c2cc(NC(C3CC3)C3CC3)nc(-c3cnn4ccsc34)n2)CC1 [Example 140]
[in] I would appreciate it if you could sort these 5 molecules by IC50, starting from the smallest number. Respond with the label ranking, as requested.
[out] T, Q, R, P, S

1 = C[C@@H](Nc1cc(C(=O)N2CCC(NC(=O)N(C)C)CC2)nc(-c2cnn3ccsc23)n1)C1CC1 [Example 138]
2 = CCC(CC)Nc1cc(C(=O)N2CCC(NC(=O)COC)CC2)nc(-c2cnn3ccsc23)n1 [Example 106]
3 = CC(=O)NC1CCN(C(=O)c2nc(-c3cnn4ccsc34)nc(N[C@@H](C)C3CC3)c2C)CC1 [Example 13]
[in] Ordering criterion: IC50; begin with the maximum. Reply format: the labels, ordered as requested.
[out] 1, 2, 3
(1: 4300 nM, 2: 2800 nM, 3: 1600 nM)
